pIC50: −log10 of the molar value.
// read-out pIC50, gathered for Cytochrome P450 2D6 (Homo sapiens, UniProt P10635) from published studies

{"molecule": "C[C@H](c1ccc(F)cc1)n1cncc1CN1CCN(S(=O)(=O)c2cnc(N3CCNCC3)s2)CC1", "reportedEndpoint": "pIC50", "measuredResult": 5.56}

**Query** Request: pIC50, test system Cytochrome P450 2D6 (Homo sapiens, UniProt P10635), entry C[C@@H](c1ccccc1-c1ccc(F)cc1)n1cncc1C(=O)N1CCC(N2CCC(O)CC2)CC1
**Result** 5.18

**Query** Form: Entry = CCCCOCCOc1ccc(-c2ccc3c(c2)/C=C(/C(=O)Nc2ccc([S@@+]([O-])Cc4c(C)ncn4CC)cc2)CCCN3CC2CCOCC2)cc1 | System = Cytochrome P450 2D6 (Homo sapiens, UniProt P10635) | pIC50 = ____
**Result** < 4.30

**Query** Item COc1ccccc1-c1ccccc1[C@H](C)n1cncc1C(=O)N1CCC2NCCO[C@@H]2C1 (stereo partly drawn) with Cytochrome P450 2D6 (Homo sapiens, UniProt P10635) - pIC50?
**Result** 5.23

**Query** Query pIC50 on Cytochrome P450 2D6 (Homo sapiens, UniProt P10635) for O=C(c1ccc(NC2CCC(F)(F)CC2)nc1)c1c[nH]c2ncnc(NCC(F)(F)F)c12
**Result** < 5.00

**Query** Which measured pIC50 belongs to Fc1cc(F)c(F)c(-c2ccc(N[C@H]3C[C@@H]4CN(Cc5ccccn5)C[C@@H]4C3)nn2)c1 , tested on Cytochrome P450 2D6 (Homo sapiens, UniProt P10635)?
**Result** < 4.52

**Query** Query for Cytochrome P450 2D6 (Homo sapiens, UniProt P10635): what pIC50 does the record show for Cc1cnc(Nc2cnn(CCO)c2)nc1-c1ccc(C(=O)N[C@H](C#N)C2CC2)cc1 ?
**Result** < 4.30

###

A compilation of IC50 values for Cytochrome P450 2D6 (Homo sapiens, UniProt P10635) from the published literature.

Please review the following examples before continuing.
{"compound": "C[C@H](c1ccc(F)cc1)n1cncc1CN1CCN(S(=O)(=O)c2cnc(N3CCN4C[C@H](O)C[C@@H]4C3)s2)CC1", "measuredResult": "> 10 µM"}
{"compound": "N#Cc1ccc(C(=O)Nc2ccc(F)c([C@@]3(C(F)F)N=C(N)O[C@@H]4CC(F)(F)C[C@@H]43)c2)nc1", "measuredResult": "> 10 µM"}
{"compound": "O=C1CCCOc2ccc(CCN3CCC(Cc4ccc(Br)c(OCCO)c4)CC3)cc21", "measuredResult": "34.8 µM"}

**Query** Value lookup for IC50; key = O=C(CSc1nnc(-c2c[nH]c3ccccc23)n1Cc1ccco1)NCc1ccccc1Cl
**Result** 8.1 µM

**Query** # query: IC50 of entry C[C@]1(c2cc(NC(=O)c3ccc(C#N)cn3)ccc2F)N=C(N)O[C@H](C2(F)CC2)[C@@H]1F
**Result** ≥ 20 µM

**Query** Consider the compound shown here: Cc1cc(NC(=O)c2cc(F)cnc2NCc2ccnc3[nH]ncc23)ccc1C(C)C What is its recorded IC50?
**Result** > 20 µM

**Query** Fill blank: measured IC50 of the compound CCC(=O)N[C@H]1CCOc2c(-c3ccc4c(c3)CCC(=O)N4C)cncc21 (single isomer, unassigned) is ____.
**Result** > 50 µM
